Biological target: human IDO1 (Homo sapiens, UniProt P14902)
Sequence (P14902 whole entry): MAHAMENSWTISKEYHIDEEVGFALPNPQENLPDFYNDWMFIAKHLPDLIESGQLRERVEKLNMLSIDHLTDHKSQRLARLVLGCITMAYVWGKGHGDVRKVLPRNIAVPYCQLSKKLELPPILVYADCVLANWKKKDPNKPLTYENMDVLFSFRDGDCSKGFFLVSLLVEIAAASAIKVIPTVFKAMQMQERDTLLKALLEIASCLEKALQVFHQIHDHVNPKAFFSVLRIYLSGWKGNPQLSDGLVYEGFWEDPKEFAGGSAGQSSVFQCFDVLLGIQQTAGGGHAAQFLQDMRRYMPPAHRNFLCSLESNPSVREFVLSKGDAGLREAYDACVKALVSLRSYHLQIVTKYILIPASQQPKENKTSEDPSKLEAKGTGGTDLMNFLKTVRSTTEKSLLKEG
Assay: Assessment of human IDO-1 inhibitory activity in HEK cells (human IDO1/HEK293 cells, kynurenine read-out with Ehrlich reagent, absorbance 490 nm)
Type: cell-based
Parameters: expressed in transfected cells
Conditions: HEK Human IDO-1 cellular assay
PARAMETER: IC50

Guide cases for IC50, answers given:
COMPOUND	IC50
CCN(c1ccc(C(C)CC(=O)O)cc1Nc1cnc(OC)nc1)C1CCOCC1 (single isomer, unassigned)	< 50 nM
CCC(CC(=O)O)c1ccc(N2C[C@@H]3C[C@H]2CN3Cc2ccccc2)c(Nc2ccc(C)cc2)c1 (single isomer, unassigned) [Example 666 E1]	< 5 nM
CCC(CC(=O)O)c1ccc(N(CC2CC2)C(C)C)c(Nc2ccc(Cl)cc2)c1 (single isomer, unassigned)	< 5 nM
CCc1ccc(Nc2cc([C@H](CC)CC(=O)O)ccc2N(CC(C)(C)O)C2CCCCC2)cc1 (single isomer, unassigned)	< 50 nM
CCC(CC(=O)O)c1cc(F)c(N(CC(C)C)CC(C)C)c(Nc2ccc3nc(C)sc3c2)c1 (single isomer, unassigned)	> 50 nM
CCC(CC(=O)O)c1ccc(N2CCC[C@H]2C(C)(C)O)c(Nc2ccnc(N3CCOCC3)n2)c1 (single isomer, unassigned)	> 50 nM

Kindly indicate its recorded IC50. Item: CCOc1ncc(Nc2cc([C@@H](CC)CC(=O)O)ccc2N(CC)C2CCOCC2)cn1 (single isomer, unassigned)
< 50 nM

Tell me its IC50 given CCOc1ncc(Nc2cc(C(CC)CC(=O)O)ccc2N2CCOC[C@H]2C(C)C)cn1 (single isomer, unassigned) [Example 891] as the entry.
> 50 nM

====

Target: human IDO1 (Homo sapiens, UniProt P14902)
Assay: Assessment of human IDO-1 inhibitory activity in HEK cells (human IDO1/HEK293 cells, kynurenine read-out with Ehrlich reagent, absorbance 490 nm)
Assay type: cell-based
Set-up: expressed in transfected cells
Settings: HEK Human IDO-1 cellular assay
Listed next: entries and their corresponding IC50.

Here is how some compounds turned out for IC50.
COMPOUND	IC50
CCOc1ncc(Nc2cc(C(CC)CC(=O)O)ccc2N(CC)C2CCCOC2)cn1 (single isomer, unassigned) [Example 69]	< 5 nM
CCC(CC(=O)O)c1ccc(N(CC2CC2)C2CCOCC2)c(NC(=O)Nc2cc(C)on2)c1 (single isomer, unassigned) [Example 697]	> 50 nM
CC[C@@H](CC(=O)O)c1ccc(N(CC)C2CCCCC2)c(Nc2ccc(Cl)cc2)c1 (single isomer, unassigned) [Example 279]	< 5 nM

For the compound CCN(c1ccc(C(CC(=O)O)c2ccccc2)cc1Nc1ccc(Cl)cc1F)C1CCOCC1 (single isomer, unassigned) [Example 592] , give its reported IC50.
> 50 nM

Quick one: give measured IC50 for Cc1ccc(NC(=O)Nc2cc(C(CC(=O)O)C3CC3)ccc2N(CC(C)C)C2CCOCC2)cc1 (racemic) [Example 1202]
< 5 nM

Supply IC50 value. Item: CCC(CC(=O)O)c1ccc(N2CCC[C@H]2C(C)(C)O)c(Nc2ccc(F)cc2)c1 (single isomer, unassigned) [Example 840]
< 50 nM

For the compound CCC(CC(=O)O)c1ccc(N(CC(C)C)C2CCCCC2)c(NC(=O)Cc2cc(F)ccc2F)c1 (single isomer, unassigned) [Example 1098 E1] , report IC50.
< 5 nM

Give IC50 for the following compound: CC[C@@H](CC(=O)O)c1ccc(N2CCC[C@H]2C(C)(C)F)c(Nc2ccc(Cl)cc2)c1 (single isomer, unassigned) [Example 788]
< 5 nM

Hello, please tell me recorded IC50 for this one: Cc1ccc(CC(=O)Nc2cc(C(CC(=O)O)C3CC3)ccc2N(CC(C)C)C2CCOCC2)cc1 (racemic) [Example 1208]
< 50 nM

Provide one value: measured IC50 of CC(CC(=O)O)c1ccc(N(CC(C)(C)O)C2CCCCC2)c(Nc2ccc(Cl)c(OCC(F)(F)F)c2)c1 (single isomer, unassigned) [Example 51]
> 50 nM
